# test.protocol: Particle size distribution by laser diffraction in wet dispersion
# Assay type: physicochemical
# experimental.conditions: dispersant water
quantity: d50 (μm)

Here are 3 compounds together with their reported answers.
compound	d50 / μm
C[C@]12CCC(=O)C=C1[C@@H]1C[C@@H]1[C@H]1[C@@H]3[C@@H]4C[C@@H]4[C@@]4(CCC(=O)O4)[C@@]3(C)CC[C@@H]12 [compound 080257, Drospirenone]	12.6
C[C@]12CCC(=O)C=C1[C@@H]1C[C@@H]1[C@H]1[C@@H]3[C@@H]4C[C@@H]4[C@@]4(CCC(=O)O4)[C@@]3(C)CC[C@@H]12 [PR100003, Drospirenone]	22.4
C[C@]12CCC(=O)C=C1[C@@H]1C[C@@H]1[C@H]1[C@@H]3[C@@H]4C[C@@H]4[C@@]4(CCC(=O)O4)[C@@]3(C)CC[C@@H]12 [compound 080169, Drospirenone]	24.5

[P] C[C@]12CCC(=O)C=C1[C@@H]1C[C@@H]1[C@H]1[C@@H]3[C@@H]4C[C@@H]4[C@@]4(CCC(=O)O4)[C@@]3(C)CC[C@@H]12 [compound 080053, Drospirenone]
[Q] C[C@]12CCC(=O)C=C1[C@@H]1C[C@@H]1[C@H]1[C@@H]3[C@@H]4C[C@@H]4[C@@]4(CCC(=O)O4)[C@@]3(C)CC[C@@H]12 [compound 080204, Drospirenone]
Determine, for P and Q , which has the greater value of d50. Returns: label corresponding to the selected item.
P

Reference source: patent US9603860B2
